Origin of values: the RNAGym collection of RNA variant scans (doi:10.1073/pnas.2313332121)

B1: TPR t1 (parent)
chain: GACCAAUCUGCCCUCAGAGCUCGAGAACAUCUUCGGAUGCAGAGGAGGCAGGCUUCGGUGGCGCGAUAGCGCCAACGUCCUCAACCUCCAAUGCAUCCCACCACAUGAUGAUGCCUGAAGAGCCUUGGUUUUUUG

variants of: B1; experiment: polymerase ribozyme fitness, log enrichment relative to wild type (log ratio); higher = more active; in vitro selection for triplet polymerase activity
Lab note: anything with polymerase ribozyme fitness (log ratio) at or over -4 counts as yes (1); the rest go in no (0).

mutant_name="A6C C22U C62U C79U C99U" group="no (0)"

Hello, I need to know if G10U A16C G44C C70U A111C U125G has measured polymerase ribozyme fitness (log ratio) not below -4. Thanks!
no (0)

Is reported polymerase ribozyme fitness (log ratio) greater than or equal to -4 here: C12U U33G A105U U112G U125A
no (0)

Does the variant C11A C53U C56A G63A C76G have recorded polymerase ribozyme fitness (log ratio) that is -4 or more?
yes (1)

Please tell me: is the variant C8U C56G C80A at or over -4 in terms of polymerase ribozyme fitness (log ratio)?
yes (1)

Test whether the variant G48C C62U U87G G110C U116A records polymerase ribozyme fitness (log ratio) of -4 or higher.
no (0)

// inclusive: polymerase ribozyme fitness (log ratio) at least -4? input: C4A C70G G113A U116A
no (0)

Is the recorded value of polymerase ribozyme fitness (log ratio) equal to or greater than -4 for this variant? C12G C15A U78A
yes (1)

Hello, I need to know if C22U A121U has measured polymerase ribozyme fitness (log ratio) not below -4. Thanks!
yes (1)

Has U9G G36A C101G A121U a recorded polymerase ribozyme fitness (log ratio) greater than or equal to -4?
yes (1)

Please indicate if the recorded polymerase ribozyme fitness (log ratio) for G47A G69A G77C C99U C114G meets or exceeds -4.
no (0)

Is reported polymerase ribozyme fitness (log ratio) greater than or equal to -4 here: A5G G36U A46U G60U A91G U106A
no (0)

Record A43G C49A ; criterion: polymerase ribozyme fitness (log ratio) no lower than -4. Met?
yes (1)

For this variant, is measured polymerase ribozyme fitness (log ratio) -4 or higher? A83G A84G C99U
no (0)

For this variant, is measured polymerase ribozyme fitness (log ratio) -4 or higher? C79A C124A
yes (1)

Could you verify whether the entry C8A G61U C98A shows polymerase ribozyme fitness (log ratio) of no less than -4?
yes (1)

Please tell me: is the variant U9A A29U G63A C104A at or over -4 in terms of polymerase ribozyme fitness (log ratio)?
yes (1)

Check if polymerase ribozyme fitness (log ratio) >= -4 (inclusive). Item: G69A C123G
yes (1)

Given U32C G48A C102A C123U , state whether its polymerase ribozyme fitness (log ratio) is at least -4.
yes (1)

Hello, I need to know if G39A G113C has measured polymerase ribozyme fitness (log ratio) not below -4. Thanks!
yes (1)

Is polymerase ribozyme fitness (log ratio) for C4U G69C C82A C88G A91U U106A at or above -4?
no (0)

Given A18U G48C C49A , state whether its polymerase ribozyme fitness (log ratio) is at least -4.
yes (1)
